Target: Torsin-1A-interacting protein 2 (Homo sapiens) (UniProt Q8NFQ8)
Sequence (Q8NFQ8 whole entry, looked up): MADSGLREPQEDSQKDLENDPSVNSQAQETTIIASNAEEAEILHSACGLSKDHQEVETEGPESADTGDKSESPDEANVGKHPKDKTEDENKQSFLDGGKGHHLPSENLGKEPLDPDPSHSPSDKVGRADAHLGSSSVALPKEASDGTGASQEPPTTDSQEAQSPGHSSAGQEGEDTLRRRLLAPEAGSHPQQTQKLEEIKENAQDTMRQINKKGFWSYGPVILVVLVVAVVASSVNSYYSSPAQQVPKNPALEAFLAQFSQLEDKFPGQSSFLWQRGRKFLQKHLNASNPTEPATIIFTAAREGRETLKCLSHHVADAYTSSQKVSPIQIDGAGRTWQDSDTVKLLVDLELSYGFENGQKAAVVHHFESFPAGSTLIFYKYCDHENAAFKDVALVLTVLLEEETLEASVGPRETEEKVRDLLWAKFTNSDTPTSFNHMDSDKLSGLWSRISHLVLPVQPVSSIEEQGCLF
Experiment: LULL1 binders on small-molecule microarray, primary screen, cell lysate, human LULL1 lysate, 635/667 nm fluorescence (AID 1092);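 also: probe is lysate of COS7 cells overexpressing human LULL1; score merges per-feature 667 nm fluorescence with signal-to-noise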
Conditions: hLULL1 lysate binding, 635 nm fluorescence, higher = more signal
Exercise: state measured composite z-score for each of the molecules provided.
Simply state the number, no unit and no words.

-- ask Check the records and state composite z-score for `C=CCNC(=O)[C@H]1[C@@H]2C(=O)O[C@@H](c3ccccc3)[C@@H](c3ccccc3)N2[C@@H](c2ccc(OCCO)cc2)[C@]12C(=O)Nc1ccc(C#CCCO)cc12`
-- reply 2.42

-- ask Check the records and state composite z-score for `[N-]=[N+]=Nc1ccccc1[C@H]1OC(c2ccc(OCCCO)cc2)=N[C@@]1(Cc1ccccc1)C(N)=O`
-- reply 2.62

-- ask Check the records and state composite z-score for `O=C1N(CCS(=O)(=O)c2ccccc2)Cc2ccccc2[C@@H]2OC(c3ccc(OCCCO)cc3)=N[C@]12Cc1ccccc1`
-- reply 3.4

-- ask Check the records and state composite z-score for `C/C=C/[C@@H](CCn1cc(CCO[Si](C(C)C)(C(C)C)C(C)C)nn1)[Si](C)(C)c1ccc(OC)cc1`
-- reply -0.356

-- ask Check the records and state composite z-score for `C=C(/C(=C/C[C@H](OC(C)=O)c1cccc(OCCO)c1)c1cc(C(=O)OC)ccc1OC)C(C)C`
-- reply 0.41

-- ask Check the records and state composite z-score for `CCOC(=O)C[C@H]1[C@H](OC(=O)Cc2ccc3c(c2)OCO3)[C@@H](NC(=O)c2ccc3ccccc3c2)c2cc(OCCCO)ccc2N1C(=O)c1ccc2ccccc2n1`
-- reply 1.44

-- ask Check the records and state composite z-score for CC1CC/C=C\[C@H]2OC34C=CCN(C(C)C)C(=O)[C@H]3N(C(CO)C(C)C)C(=O)[C@@H]4C2C(=O)O1 (some centres not stated)
-- reply 1.55

* * *

Assay: small-molecule binders of probe aNOTCH3, primary screen, biochemical, small-molecule microarray, 635/667 nm fluorescence (AID 1120);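 also: probe is a biotin-tagged antibody raised against NOTCH3 rather than NOTCH3 protein; score merges spot fluorescence near 667 nm with spot signal to noise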
Conditions: higher = more signal
Assign true (1) whenever composite z-score does not fall below 0.03; assign false (0) whenever it does.

-- ask Quick check, composite z-score >= 0.03? `CCOC(=O)C[C@H]1[C@H](OC(=O)c2cc3ccccc3oc2=O)[C@@H](NC(=O)c2ccccc2)c2cc(OCCCO)ccc2N1C(=O)Cc1ccc(OC)cc1`
-- reply true (1)

-- ask Quick check, composite z-score >= 0.03? `O=C1c2ccccc2[C@@]2(Cc3ccccc3N(CC(F)(F)F)C2=O)[C@H](c2ccc(CO)cc2)N1Cc1ccccc1C(F)(F)F`
-- reply false (0)

-- ask Quick check, composite z-score >= 0.03? `CC(C)[Si](C#C[Si](C(C)C)(C(C)C)C(C)C)(O[C@H](C)c1cn([C@H](C)c2ccccc2)nn1)C(C)C`
-- reply false (0)

-- ask Quick check, composite z-score >= 0.03? `C=CCN1C(=O)[C@@]2(O[C@@H](CCn3cc(CCO)nn3)[C@H]([Si](C)(C)c3ccc(OC)cc3)[C@H]2C)c2cc(NC(=O)c3ccc(OC)cc3)ccc21`
-- reply true (1)

-- ask Quick check, composite z-score >= 0.03? `COc1ccc([Si](C)(C)[C@H]2[C@H](CC(=O)N(CCO)Cc3ccccc3)O[C@@]3(C(=O)N(Cc4ccc(N5CCC5=O)cc4)c4ccccc43)[C@@H]2C)cc1`
-- reply false (0)

* * *

Test: binders of probe aFST on microarray, primary screen, stem cell growth factor project, biochemical, small-molecule microarray, fluorescence 635/667 (AID 1086);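 also: score merges 667 nm fluorescence with signal-to-noise of each printed compound spot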
Conditions: higher = more signal
property: composite z-score
Simply state the number, no unit and no words.

-- ask Check the records and state composite z-score for `CC(C)C[C@@H]1NC(=O)[C@@H]2C[C@H](C(=O)NCCCCCNC(=O)CS)[C@H](c3cccc(OCCO)c3)N2C1=O`
-- reply 0.35

-- ask Check the records and state composite z-score for `O=C1O[C@H](c2ccccc2)[C@H](c2ccccc2)N2[C@H]1[C@@H](C(=O)Nc1nc3ccccc3s1)[C@]1(C(=O)Nc3ccc(C#CCCO)cc31)[C@H]2c1ccccc1OCCO`
-- reply 0.599

-- ask Check the records and state composite z-score for `COC(=O)C(CC#Cc1ccc2c(c1)[C@]1(C(=O)N2)[C@H](C(=O)O)[C@H]2C(=O)O[C@H](c3ccccc3)[C@H](c3ccccc3)N2[C@@H]1c1ccc(OCCO)cc1)C(=O)OC`
-- reply 0.6

-- ask Check the records and state composite z-score for `C[N+](C)(C)CCCCNC(=O)[C@@H]1C[C@@H]2C(=O)NCC(=O)N2[C@@H]1c1cccc(OCCO)c1`
-- reply 0.432

-- ask Check the records and state composite z-score for C=C1C=C(Br)C2(OCCCO2)[C@H]2OC12 (stereo partly specified)
-- reply 0.206

-- ask Check the records and state composite z-score for CCCCCN1CC=CC23O[C@@H]4/C=C\CCC(C)OC(=O)C4[C@H]2C(=O)N(CCCO)[C@@H]3C1=O (stereo partly specified)
-- reply -0.61

-- ask Check the records and state composite z-score for C[C@@H](OCc1ccccc1)C1NC(=O)[C@@]23C(=O)N[C@@H](Cc4ccccc4)C2[C@H](C)[C@@]2(C)O[C@H]2C3/C=C/C/C=C\CNC(=O)[C@@H]2CCCN2C1=O (stereo partly specified)
-- reply -0.111

-- ask Check the records and state composite z-score for `NCCCCCNC(=O)[C@H]1C[C@H]2C(=O)NCC(=O)N2[C@H]1c1ccc(O)cc1`
-- reply 0.106

-- ask Check the records and state composite z-score for `CCOC(=O)C[C@H]1[C@H](OC(=O)c2ccc(-c3ccccc3)cc2)[C@@H](NC(=O)C2CCCCC2)c2cc(OCCCO)ccc2N1C(=O)c1ccc2ccccc2n1`
-- reply 0.483

-- ask Check the records and state composite z-score for `CCCCCCC#C[Si](O[C@H](c1ccccc1)c1cn(Cc2ccccc2)nn1)(C(C)C)C(C)C`
-- reply 0.129

-- ask Check the records and state composite z-score for `C=C(C1=CCN(S(=O)(=O)c2ccc(C)cc2)C1)[C@@H](OC(C)=O)[C@@H]1CCCN1S(=O)(=O)c1ccccc1[N+](=O)[O-]`
-- reply -0.344

-- ask Check the records and state composite z-score for `COCCOC(=O)N1C(=O)[C@@]2(c3cc(C#CCNC(N)=O)ccc31)[C@H](c1ccccc1OCCO)N1[C@H](c3ccccc3)[C@H](c3ccccc3)OC(=O)[C@H]1[C@@H]2C(=O)Nc1nc2ccccc2s1`
-- reply 0.986

-- ask Check the records and state composite z-score for `C=CCNC(=O)[C@@H]1[C@H]2C(=O)O[C@H](c3ccccc3)[C@H](c3ccccc3)N2[C@H](c2ccc(O)cc2)[C@@]12C(=O)Nc1ccc(C#Cc3ccc(OC)cc3)cc12`
-- reply 0.496

-- ask Check the records and state composite z-score for `COc1ccc(C#Cc2ccc3c(c2)[C@]2(C(=O)N3)[C@H](c3ccc(O)cc3)N3[C@H](c4ccccc4)[C@H](c4ccccc4)OC(=O)[C@H]3[C@@H]2C(=O)N2CCN(c3ncccn3)CC2)cc1`
-- reply 0.252

-- ask Check the records and state composite z-score for `O=C(NO)[C@]1(Cc2ccccc2)N=C(c2ccc(OCCCO)cc2)O[C@@H]1c1ccccc1`
-- reply 0.14

-- ask Check the records and state composite z-score for CC(CO)N1C(=O)[C@@H]2C3C(=O)OCCC/C=C\[C@H]3OC23C=CCN(Cc2ccccc2)C(=O)[C@@H]13 (stereo partly specified)
-- reply -0.0745

-- ask Check the records and state composite z-score for `C=C[C@H](OC)[C@@H](OC(=O)Nc1ccc(OC)cc1)c1ccc(OC)c(O)c1`
-- reply -1.11

-- ask Check the records and state composite z-score for `CO[C@H]1O[C@H](CO)[C@@H](OC(=O)CCc2ccccc2)[C@@H]2OC(=O)[C@H](Cc3ccccc3)C/C=C/C[C@@H](Cc3ccccc3)C(=O)O[C@@H]12`
-- reply -0.306

-- ask Check the records and state composite z-score for `COCCOC(=O)N1C(=O)[C@@]2(c3cc(C#CCNC(N)=O)ccc31)[C@H](C(=O)NC[C@H](O)c1ccccc1)[C@H]1C(=O)O[C@H](c3ccccc3)[C@H](c3ccccc3)N1[C@@H]2c1ccc(O)cc1`
-- reply 0.24

-- ask Check the records and state composite z-score for CC(C)C[C@@H]1NC(=O)[C@@]23C(=O)N[C@@H](Cc4ccccc4)C2[C@H](C)[C@@]2(C)O[C@H]2C3/C=C/C/C=C\CNC(=O)[C@H](Cc2ccccc2)NC1=O (stereo partly specified)
-- reply 0.0017

-- ask Check the records and state composite z-score for `O=C(O)[C@H]1C[C@H]2C(=O)NCC(=O)N2[C@H]1c1cccc(OCCO)c1`
-- reply 1.98

-- ask Check the records and state composite z-score for `CC(C)[C@@H](C(=O)O)n1cc(-c2ccccn2)nn1`
-- reply 0.659

-- ask Check the records and state composite z-score for CC(=O)OC(C/C=C\B1OC(C)(C)C(C)(C)O1)c1ccccc1 (stereo unspecified)
-- reply -0.0273

-- ask Check the records and state composite z-score for `CCOC(=O)C[C@H]1[C@H](OC(=O)c2ccc(C(=O)c3ccccc3)cc2)[C@@H](NC(=O)Cc2ccc(OC)cc2)c2cc(OCCCO)ccc2N1C(=O)Cc1ccc(OC)cc1`
-- reply 0.971

-- ask Check the records and state composite z-score for `C=CCNC(=O)[C@H]1[C@@H]2C(=O)O[C@@H](c3ccccc3)[C@@H](c3ccccc3)N2[C@@H](c2ccc(OCCO)cc2)[C@]12C(=O)Nc1ccc(C#CCCO)cc12`
-- reply 0.219

-- ask Check the records and state composite z-score for `O=C1O[C@@H](c2ccccc2)[C@@H](c2ccccc2)N2[C@@H](c3ccc(OCCO)cc3)[C@]3(C(=O)Nc4ccc(C#CC5(O)CCCCCC5)cc43)[C@@H](C(=O)NC[C@H](O)c3ccccc3)[C@H]12`
-- reply 0.934
